Tested on: NCI/ADR-RES complex spheroid viability
Assay: Anticancer human tumor NCI/ADR-RES cell line growth inhibition;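 also: spheroids exposed to compounds for 7 days; 100% = DMSO vehicle treated spheroids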
Conditions: second compound 10 µM; first compound 0.316 µM; hits give low values
Please respond with condition met when measured viability, T/C is strictly beneath 90%, and with condition not met in all other cases.

[[record]]
compound = "COc1cc(Nc2ncc3c(n2)-c2ccc(Cl)cc2C(c2c(F)cccc2OC)=NC3)ccc1C(=O)O + NC1CCC(NC2CC2c2ccccc2)CC1"
class_assignment = "condition met"

[[record]]
compound = "O=C(c1cc(Cc2n[nH]c(=O)c3ccccc23)ccc1F)N1CCN(C(=O)C2CC2)CC1 + NC1CC1c1ccc(-c2cccc(O)c2)cc1"
class_assignment = "condition not met"

[[record]]
compound = "CC1COCCN1c1cc(-c2ccnn2C)c2ccnc(-c3ccn[nH]3)c2n1 (centres undefined) + NC1CCC(NC2CC2c2ccccc2)CC1"
class_assignment = "condition met"

[[record]]
compound = "O=C(C=Cn1cnc(-c2cc(C(F)(F)F)cc(C(F)(F)F)c2)n1)NNc1cnccn1 + NC1CC1c1ccc(-c2cccc(O)c2)cc1"
class_assignment = "condition met"

[[record]]
compound = "CC1COCCN1c1cc(C2(S(C)(=N)=O)CC2)nc(-c2ccnc3[nH]ccc23)n1 (centres undefined) + NC1CC1c1ccc(-c2cccc(O)c2)cc1"
class_assignment = "condition met"


Please examine the following record next.
Task: Record CC1COCCN1c1cc(-c2ccnn2C)c2ccnc(-c3ccn[nH]3)c2n1 (centres undefined) + NC1CC1c1ccc(-c2cccc(O)c2)cc1 : is its viability, T/C strictly below 90%?
Output: condition met

----------
Test system: NCI/ADR-RES complex spheroid viability
Assay: Anticancer human tumor NCI/ADR-RES cell line growth inhibition;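 also: spheroids exposed to compounds for 7 days; 100% = DMSO vehicle treated spheroids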
Conditions: second compound 10 µM; first compound 0.03 µM; hits give low values
experimental readout: viability, T/C

Completed entries (count: 3):
[[record]]
compound = "Nc1ccccc1NC(=O)c1ccc(CNC(=O)OCc2cccnc2)cc1 + NC1CC1c1ccc(-c2cccc(O)c2)cc1"
experimental_readout = "viability, T/C"
result = "84.1%"

[[record]]
compound = "Nc1ccn(C2OC(CO)C(O)C2(F)F)c(=O)n1 (configuration not stated) + NC1CCC(NC2CC2c2ccccc2)CC1"
experimental_readout = "viability, T/C"
result = "2.1%"

[[record]]
compound = "NS(=O)(=O)OCC1CC(n2ccc3c(NC4CCc5ccccc54)ncnc32)CC1O (configuration not stated) + NC1CC1c1ccc(-c2cccc(O)c2)cc1"
experimental_readout = "viability, T/C"
result = "89.9%"


Look at each compound and report its viability, T/C.
1. CCc1c2c(nc3ccc(O)cc13)-c1cc3c(c(=O)n1C2)COC(=O)[C@]3(O)CC + NC1CC1c1ccc(-c2cccc(O)c2)cc1
2. Nc1ccn(C2OC(CO)C(O)C2(F)F)c(=O)n1 (configuration not stated) + NC1CC1c1ccc(-c2cccc(O)c2)cc1
3. CCN(c1cc(-c2ccc(CN3CCOCC3)cc2)cc(C(=O)NCc2c(C)cc(C)[nH]c2=O)c1C)C1CCOCC1 + NC1CC1c1ccc(-c2cccc(O)c2)cc1
4. COc1cc(C2c3cc4c(cc3C(OC3OC5COC(C)OC5C(O)C3O)C3COC(=O)C23)OCO4)cc(OC)c1O (configuration not stated) + NC1CC1c1ccc(-c2cccc(O)c2)cc1
5. CCN(c1cc(-c2ccc(CN3CCOCC3)cc2)cc(C(=O)NCc2c(C)cc(C)[nH]c2=O)c1C)C1CCOCC1 + NC1CCC(NC2CC2c2ccccc2)CC1
6. O=C(C=Cc1cccc(S(=O)(=O)Nc2ccccc2)c1)NO + NC1CC1c1ccc(-c2cccc(O)c2)cc1

Output:
1. 0.59%
2. 2.33%
3. 87.8%
4. 81%
5. 89.8%
6. 71.5%
